# Tested on: HEK293
# EXPERIMENT: Cytotoxic Profiling of Annotated Libraries Using Quantitative High-Throughput Screening (AID 1296008); note: % is set by controls: 0 for no effect and ±100 for the full control effect; nearly all actives have a fitted effect of over 60% in size
# STATED CONDITIONS: Five cell lines viability, CellTiter-Glo ATP luminescence, 48-72 h; stronger effect = lower value
Records with an inconclusive call do not appear. Where a SMILES comes first, the peptide text is derived from it. The star is where a group is joined. AMC = Cc1cc(=O)oc2cc(N*)ccc12; Cbz = O=C(OCc1ccccc1)*
OBSERVABLE: max response (%)
Quick note: give the figure in %, leave out the unit.

These solved cases illustrate the format of a correct answer.
COCCN1CCC(C(=O)NO)(S(=O)(=O)c2ccc(Oc3ccc(OC(F)(F)F)cc3)cc2)CC1 :: -3.44
C/C(=C\CCC1(C)C2CC3C(C2)C31C)C(=O)O (stereo not given) :: -2.35

The reported HEK293 max response of OC[C@@]1(O)CO[C@@H](OC[C@H]2O[C@@H](OCc3ccccc3)[C@H](O)[C@@H](O)[C@@H]2O)[C@@H]1O is 2.46

The reported HEK293 max response of C[C@@H]1O[C@@H](O[C@H]2[C@H](O[C@H]3[C@H](O[C@H]4CC[C@@]5(C)C(CC[C@]6(C)C5CC=C5[C@@H]7CC(C)(C)C[C@@H](O)[C@]7(C)CC[C@]56C)C4(C)C)O[C@H](C(=O)O)[C@@H](O)[C@@H]3O)O[C@H](C(=O)O)[C@H](O)[C@@H]2O)[C@H](O)[C@H](O)[C@H]1O (stereo not given in full) is -8.11

The reported HEK293 max response of Cc1cc(=O)oc2cc(NC(=O)[C@H](CCC(=O)O)NC(=O)[C@H](CC(C)C)NC(=O)[C@H](CC(C)C)NC(=O)OCc3ccccc3)ccc12 (Cbz-Leu-Leu-Glu-{AMC}) is -3.22

The reported HEK293 max response of C=C1CC[C@@]2(OC1)O[C@H]1CC3[C@@H]4CC=C5C[C@@H](O)C[C@@H](O[C@@H]6OC[C@H](O)[C@H](O)[C@H]6O[C@@H]6O[C@@H](C)[C@H](O)[C@@H](O)[C@H]6O)[C@]5(C)C4CC[C@]3(C)[C@H]1[C@@H]2C (stereo not given in full) is -17.1

The reported HEK293 max response of CC(C)[C@@H](C(=O)O)N1Cc2c(cc(O)c3c2O[C@]2(C3)[C@H](C)CCC3C(C)(C)[C@H](O)[C@H](O)C[C@@]32C)C1=O (stereo not given in full) is -15

The reported HEK293 max response of CC(=O)NC(Cc1c[nH]c2ccccc(=O)c12)C(=O)O (stereo not given) is 1.04

The reported HEK293 max response of O=C(NCCN1CCCC1)c1cc(-c2ccc(CN3CCOCC3)cc2)nc2ccc(F)cc12 is 2.05

---

# STUDY TARGET: Catechol O-methyltransferase (Homo sapiens) (UniProt P21964)
# Sequence (P21964 whole entry, looked up): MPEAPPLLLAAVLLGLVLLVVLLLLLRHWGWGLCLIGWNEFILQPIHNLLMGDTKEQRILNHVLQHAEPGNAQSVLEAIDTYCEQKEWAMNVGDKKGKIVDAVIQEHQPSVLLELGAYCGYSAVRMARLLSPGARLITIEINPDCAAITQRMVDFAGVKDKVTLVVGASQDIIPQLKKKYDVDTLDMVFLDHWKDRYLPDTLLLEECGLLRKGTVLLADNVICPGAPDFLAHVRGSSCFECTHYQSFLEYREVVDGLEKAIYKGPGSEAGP
# EXPERIMENT: Confirmatory Screen for Target Class Profiling of Small Molecule Inhibitors of Methyltransferases (AID 1745852)
# STATED CONDITIONS: MTase-Glo luminescence, SAH detection, recombinant enzyme; measured here: COMT max response; stronger effect = lower value
Definition: the class of an entry is the range in c1 (below -80%), c2 (-80% to below -60%), c3 (-60% or more) that contains its activity.

Worked set:
CC(C)(O)C1CC=C(C(=O)OC[C@H]2O[C@@H](Oc3cc(C(=O)O)cc(O)c3O)[C@H](O)[C@@H](O)[C@@H]2O)CC1 (some centres not stated) :: c1
O=C(O)CCc1ccc(NCc2cccc3c2CCCN3CCOc2ccccc2)cc1F :: c3
COc1cc(/C=C/C(=O)OCC2OC(OC3(CO)OC(CO)C(O)C3O)C(O)C(O)C2O)ccc1O (configuration not stated) :: c2
COc1cc(/C=C/C(=O)O[C@H]2[C@@H]3C=CO[C@@H](O[C@@H]4O[C@H](CO)[C@@H](O)[C@H](O)[C@H]4O)[C@@H]3[C@@]3(CO)O[C@@H]23)ccc1O :: c2
O=C(CCc1ccccc1)c1c(O)c([C@@H]2O[C@H](CO)[C@@H](O)[C@H](O)[C@H]2O)c(O)c([C@@H]2O[C@H](CO)[C@@H](O)[C@H](O)[C@H]2O)c1O :: c1
CC1CCCCCCCc2cc(O)cc(O)c2C(=O)O1 (configuration not stated) :: c2
O=C(O)c1cccc(CN2C(=O)/C(=C(\c3ccccc3)c3ccc(Cl)cc3)c3ccccc32)c1 :: c3
CC(C)c1cc2c(c(O)c1O)[C@@]13CCCC(C)(C)C1[C@@H](O)[C@@H]2OC3=O (some centres not stated) :: c1

Prompt: # classify by activity band: C=C(C(=O)O)[C@@H]1CC[C@H](C)[C@@H]2CC(=O)C(C)=C2C1
Response: c2

Prompt: # classify by activity band: C=Cc1cc2oc(-c3ccc(O)c(F)c3)nc2cc1O
Response: c3

---

# System: HEK293
# EXPERIMENT: Cytotoxic Profiling of Annotated Libraries Using Quantitative High-Throughput Screening (AID 1296008); note: % is set by controls: 0 for no effect and ±100 for the full control effect; nearly all actives have a fitted effect of over 60% in size
# STATED CONDITIONS: Five cell lines viability, CellTiter-Glo ATP luminescence, 48-72 h; stronger effect = lower value
# Procedure: Cell-based phenotypic screening is a commonly used approach to discover biological pathways, novel drug targets, chemical probes and high-quality hit-to-lead molecules. […] A pintool (Kalypsys) was used to transfer 23 nL of compound solution to the 1536-well assay plates. […] Plates were left at room temperature for 10 min before imaging the ATP-coupled luminescence using a ViewLux microplate imager (PerkinElmer, Waltham, MA).
Records with an inconclusive call do not appear.
OBSERVABLE: max response (%)
Quick note: give the figure in %, leave out the unit.

These solved cases illustrate the format of a correct answer.
CC1=CC(=O)CC(C)(C)C1CO[C@@H]1O[C@H](CO)[C@@H](O)[C@H](O)[C@H]1O (some centres not stated) :: -1.36
C/C=C(\C)C(=O)OC[C@H]1O[C@@H](O[C@H]2[C@@H](O[C@H]3O[C@H](COC(=O)/C(C)=C/C)[C@@H](O)[C@H](O)[C@H]3O[C@@H]3O[C@H](COC(=O)/C(C)=C/C)[C@@H](O)[C@H](OC(=O)/C(C)=C/C)[C@H]3O)O[C@H](COC(=O)/C(C)=C/C)[C@@H](O)[C@@H]2O)[C@H](O)[C@@H](O)[C@@H]1O :: -2.95
O=C(/C=C/c1ccc(O)cc1)O[C@@H]1C[C@@](O)(C(=O)O)C[C@@H](O)[C@@H]1O :: -2.92
CC(C/C=C/C(C)(C)O)C1CCC(C)(O)C(O)C1 (configuration not stated) :: 2.47
Nc1nc2c(nc(Sc3ccc(Cl)cc3)n2[C@@H]2O[C@@H]3COP(=O)(O)O[C@H]3[C@H]2O)c(=O)[nH]1 :: 1.54
C=C(C)[C@@H]1CC[C@]2(CO)CC[C@]3(C)[C@H](CC[C@@H]4[C@@]5(C)CC[C@H](O)C(C)(C)[C@@H]5CC[C@]43C)[C@@H]12 :: 3.79

The reported HEK293 max response of COc1cc(Nc2ccc([N+](=O)[O-])cc2C(=O)O)cc2ccccc12 is 1.77

The reported HEK293 max response of C=C1C(=O)OC[C@H]2C(C(=O)O)=CC3CC(C)(C)C[C@@]132 (some centres not stated) is 4.17

The reported HEK293 max response of C=CC(C)(CCC=C(C)C)O[C@@H]1O[C@H](CO)[C@@H](O)[C@H](O)[C@H]1O (some centres not stated) is -6.28

---

Reported max response values follow for various compounds
# System: HEK293
# EXPERIMENT: Cytotoxic Profiling of Annotated Libraries Using Quantitative High-Throughput Screening (AID 1296008); note: % is set by controls: 0 for no effect and ±100 for the full control effect; nearly all actives have a fitted effect of over 60% in size
# STATED CONDITIONS: Five cell lines viability, CellTiter-Glo ATP luminescence, 48-72 h; stronger effect = lower value
Results filed as inconclusive are left out.
Quick note: give the figure in %, leave out the unit.

These solved cases illustrate the format of a correct answer.
COc1cc2c(c(O)c1OC/C=C(\C)CC/C=C(/C)CCC=C(C)C)CN(C(CCC(=O)O)C(=O)O)C2=O (configuration not stated) :: 2.31
CC1C(=O)OCC2=CC[N+]3([O-])CCC(OC(=O)C(C)(O)C1(C)O)C23 (configuration not stated) :: 3.51
COc1ccc(CC(=O)NCc2ccccc2-c2ccccc2C(=O)NCCc2cccnc2)cc1 :: -0.81
C=C(C)[C@@H]1CC[C@]2(C)CC[C@]3(C)C(CCC4[C@@]5(C)CC[C@H](O)C(C)(C)C5CC[C@]43C)C12 (some centres not stated) :: 1.06
C/C=C(\C)C(=O)OC1C(C)C2(O)C3C=C(C)C(=O)C3CC(CO)=CC2C2C(C)(C)C12OC(C)=O (configuration not stated) :: -25.8
NC(=O)[C@@H]1CC[C@H](c2ccc(OCc3ccccc3F)cc2)N1 :: 2.17

Here is the next item to consider.
The reported HEK293 max response of CC1(O)CCC2C(C3C1CCC3(C)O)C2(C)C (configuration not stated) is 0.939
